# Tested on: EKVX
# protocolNotes: relative viability (nuclei count vs DMSO), 5 days (fraction); higher = more cells survive
# cond: first compound 0.06325 µM
propertyLabel: relative viability
Field format: numeric only.

Sample records with relative viability:
compound	relative viability
CCNC(=O)c1noc(-c2cc(C(C)C)c(O)cc2O)c1-c1ccc(CN2CCOCC2)cc1 [Luminespib] + COc1cccc2cc(-c3nc([C@H]4CC[C@H](C(=O)O)CC4)n4ncnc(N)c34)[nH]c12 [OSI-027] (partner 0.5 µM)	0.658
CCNC(=O)c1noc(-c2cc(C(C)C)c(O)cc2O)c1-c1ccc(CN2CCOCC2)cc1 [Luminespib] + CS(=O)(=O)N1CCN(Cc2cc3nc(-c4cccc5[nH]ncc45)nc(N4CCOCC4)c3s2)CC1 [Pictilisib] (partner 1 µM)	0.226
CCNC(=O)c1noc(-c2cc(C(C)C)c(O)cc2O)c1-c1ccc(CN2CCOCC2)cc1 [Luminespib] + CC(=O)c1c(C)c2cnc(Nc3ccc(N4CCNCC4)cn3)nc2n(C2CCCC2)c1=O [Palbociclib] (partner 0.5 µM)	0.342

Look up relative viability for this compound: CCNC(=O)c1noc(-c2cc(C(C)C)c(O)cc2O)c1-c1ccc(CN2CCOCC2)cc1 [Luminespib] + Nc1nc2[nH]cc(CCc3ccc(C(=O)N[C@@H](CCC(=O)O)C(=O)O)cc3)c2c(=O)[nH]1 [Pemetrexed] (partner 0.2 µM)
0.258
